Test system: VDR:RXRa (NR concentration 270 nM, RXRa partner concentration 90 nM)
Assay: PBM binding z-score (relative to random genomic background probes); higher = stronger binding; sequences stand for … in GC…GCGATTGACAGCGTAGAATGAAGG
outcome-measure: PBM binding z-score
// return a plain number; no unit text

Quick one: PBM binding z-score of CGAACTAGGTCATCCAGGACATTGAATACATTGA ? 5.52

Quick one: PBM binding z-score of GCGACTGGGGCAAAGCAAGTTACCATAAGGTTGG ? -0.206

Quick one: PBM binding z-score of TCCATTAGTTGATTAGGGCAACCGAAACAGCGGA ? 0.545

Quick one: PBM binding z-score of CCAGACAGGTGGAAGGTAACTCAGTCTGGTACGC ? -0.365

Quick one: PBM binding z-score of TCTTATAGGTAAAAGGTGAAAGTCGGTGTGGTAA ? 1.66

Quick one: PBM binding z-score of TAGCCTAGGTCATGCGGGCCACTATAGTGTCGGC ? 3.58

###

System: PPARg:RXRa IVT, anti-PPARg (NR concentration 270 nM, RXRa partner concentration 90 nM)
Assay: PBM binding z-score (relative to random genomic background probes); higher = stronger binding; sequences stand for … in GC…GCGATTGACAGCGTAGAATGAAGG
Label MET when PBM binding z-score is at or above 4; otherwise label NOT MET.

For orientation, consider the following solved cases.
sequence-content: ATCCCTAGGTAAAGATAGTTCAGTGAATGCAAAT
label-value: NOT MET
--
sequence-content: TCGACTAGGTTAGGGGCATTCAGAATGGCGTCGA
label-value: NOT MET
--
sequence-content: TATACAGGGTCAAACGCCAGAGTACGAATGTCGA
label-value: MET
--
sequence-content: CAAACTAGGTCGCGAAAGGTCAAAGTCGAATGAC
label-value: MET

API: above_or_equal(metric=PBM binding z-score, cutoff=4) for item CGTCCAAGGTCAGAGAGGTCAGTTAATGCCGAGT NOT MET

###

Tested on: VDR:RXRa (NR concentration 270 nM, RXRa partner concentration 90 nM)
Test: PBM binding z-score (relative to random genomic background probes); higher = stronger binding; sequences stand for … in GC…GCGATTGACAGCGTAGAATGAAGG
Label true when PBM binding z-score is at or above 0.3; otherwise label false.

For orientation, consider the following solved cases.
sequence-content: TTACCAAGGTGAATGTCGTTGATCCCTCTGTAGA
label-value: true
--
sequence-content: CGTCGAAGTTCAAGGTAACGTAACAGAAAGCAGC
label-value: true
--
sequence-content: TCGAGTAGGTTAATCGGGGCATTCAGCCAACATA
label-value: true

API: above_or_equal(metric=PBM binding z-score, cutoff=0.3) for item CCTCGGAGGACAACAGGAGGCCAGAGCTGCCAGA false

API: above_or_equal(metric=PBM binding z-score, cutoff=0.3) for item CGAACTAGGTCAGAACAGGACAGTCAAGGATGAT true

API: above_or_equal(metric=PBM binding z-score, cutoff=0.3) for item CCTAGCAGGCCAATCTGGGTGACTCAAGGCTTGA false

###

Test system: PXR:RXRa (NR concentration 270 nM, RXRa partner concentration 90 nM)
Assay: PBM binding z-score (relative to random genomic background probes); higher = stronger binding; sequences stand for … in GC…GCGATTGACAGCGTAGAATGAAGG
outcome-measure: PBM binding z-score
// return a plain number; no unit text

Worked examples, 3 sequences total:
sequence-content: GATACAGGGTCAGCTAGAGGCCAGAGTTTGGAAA
PBM binding z-score: 3.41

sequence-content: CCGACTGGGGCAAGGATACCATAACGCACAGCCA
PBM binding z-score: -0.678

sequence-content: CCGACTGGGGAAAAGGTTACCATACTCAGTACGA
PBM binding z-score: 0.978

Quick one: PBM binding z-score of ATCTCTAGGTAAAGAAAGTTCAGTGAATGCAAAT ? 2.68

Quick one: PBM binding z-score of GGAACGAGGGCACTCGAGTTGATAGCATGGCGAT ? 2.52

Quick one: PBM binding z-score of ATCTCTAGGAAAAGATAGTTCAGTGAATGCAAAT ? 0.432
